assay: self-splicing fitness, log relative to wild type (ln ratio); higher = more splicing; Tetrahymena group I intron in knt gene, E. coli kanamycin selection, DiMSum; sequences stand for … in CUCUCU…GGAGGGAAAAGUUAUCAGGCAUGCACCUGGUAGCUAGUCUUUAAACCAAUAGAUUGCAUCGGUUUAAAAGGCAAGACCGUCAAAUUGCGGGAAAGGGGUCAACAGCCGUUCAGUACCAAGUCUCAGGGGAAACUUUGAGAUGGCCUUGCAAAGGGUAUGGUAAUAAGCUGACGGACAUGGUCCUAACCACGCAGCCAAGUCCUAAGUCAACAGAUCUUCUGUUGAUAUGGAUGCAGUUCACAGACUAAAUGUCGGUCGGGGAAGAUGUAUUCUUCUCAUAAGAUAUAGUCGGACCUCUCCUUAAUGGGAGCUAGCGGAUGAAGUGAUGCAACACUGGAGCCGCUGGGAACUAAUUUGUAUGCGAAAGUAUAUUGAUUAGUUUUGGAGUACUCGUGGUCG; settings: 37 °C;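 note: selection with 25 µg/mL kanamycin versus none on LB agar overnight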
List of self-splicing fitness (ln) values.
When you answer, write just the number.

GGGCAGCAAUAUUACGAUUC	0.155
GGAUAGCAAUAUUACGAAGU	-2.02

Entry GAGUAGCAAUAUUACGGGUG : reported self-splicing fitness (ln) = ?
-1.71

Entry GCACAGCAAUAUUACGCGUA : reported self-splicing fitness (ln) = ?
-0.173

Entry CAGGAGCAAUAUUACGUGUU : reported self-splicing fitness (ln) = ?
-2.55

Entry GCGUAGCAAUAUUACGAUGG : reported self-splicing fitness (ln) = ?
-2.82

Entry CCUCAGCAAUAUUACGAACG : reported self-splicing fitness (ln) = ?
-0.285
